TARGET_UNDER_TEST: T1, human HER2 His6 protein, extracellular domain (NCBI NP_004439.2, Met 1-Thr 652), C-terminal polyhistidine tag (human, UniProt P04626 23-652)
T1 construct: range 1-652; The stated range includes Met 1; also called HER2-ECD; human HER2-ECD
PROCEDURE_TEXT: ForteBio OCTET R2, antibody captured on Protein A sensor, HER2 protein in solution, 25 °C
READOUT_TYPE: koff (s⁻¹)
Answers are plain numbers, in s⁻¹.

Look at this binder and give its reported koff. HER2 VHH-FC1 fusion protein 2-C07 (Fc fusion, 25; also called 2-C07-FC1; chimeric nanobody 2-C07) AVQLVESGGGLVQPGGSLRLSCAASGLTFMRYDINWYRQAPGKERELVAALDSSSGRTNYADFTEGRFTISRNNAKNSAYLQMNNLKPEDTASYYCNAQWKRIGADYWGQGTQVTVFSEPKSSDKTHTCPPCPAPEFEGGPSVFLFPPKPKDTLMISRTPEVTCVVVDVSHEDPEVKFNWYVDGVEVHNAKTKPREEQYNSTYRVVSVLTVLHQDWLNGKEYKCKVSNKALPASIEKTISKAKGQPREPQVYTLPPSRDELTKNQVSLTCLVKGFYPSDIAVEWESNGQPENNYKTTPPVLDSDGSFFLYSKLTVDKSRWQQGNVFSCSVMHEALHNHYTQKSLSLSPGK 0.00251
